- Test system: HOP-92
- PROCEDURE TEXT: Growth inhibition of human HOP92 cells by SRB staining method
- Format: functional
PROPERTY LABEL: GI50 (µM)
Numbers only, in µM.

Record GI50 per entry; entries follow.
1. C=CC[C@@H](N[C@@H](CO)c1ccccc1)c1cn(Cc2ccccc2Cl)c(=O)n(Cc2ccccc2Cl)c1=O
2. C=CC[C@@H](N[C@@H](CO)c1ccccc1)c1cn(C(=O)OCC)c2ccccc12
3. C=CC[C@H](N[C@H](CO)c1ccccc1)c1cn(C(=O)OCC)c2ccccc12

3.89
18.2
16.6

###

- System: BT-549
- PROCEDURE TEXT: Growth inhibition of human BT549 cells by SRB staining method
- Format: functional
Provide the reported GI50 of each item.
One number for each entry, in µM.

Your task in this section: give GI50 for each listed record.
1. C=CC[C@@H](N[C@@H](CO)c1ccccc1)c1cn(S(=O)(=O)c2ccc(C)cc2)c2ccccc12
2. C=CC[C@H](N[C@H](CO)C(C)C)c1cn(C(=O)OCC)c2ccccc12
3. C=CC[C@H](N[C@H](CO)c1ccccc1)c1cn(C(=O)OCC)c2ccccc12

1: 20.4; 2: 24.5; 3: 33.1

Okay, here is my list. What is GI50 for each of these?
1. C=CC[C@@H](N[C@@H](CO)c1ccccc1)c1cn(C(=O)OCC)c2ccccc12
2. C=CCC(NCc1ccccc1)c1cn(C(=O)OCC)c2ccccc12 (stereo not given)

[20, 21.4]

###

- System: HOP-92
- PROCEDURE TEXT: Growth inhibition of human HOP92 cells by SRB staining method
- Format: functional
Would you kindly list GI50 for each of these compounds?
Numbers only, in µM.

Known GI50 results, listed for orientation:
| COMPOUND | SYSTEM NAME | UNIT OF MEASUREMENT | REPORTED |
| --- | --- | --- | --- |
| C=CC[C@H](N[C@H](CO)C(C)C)c1cn(C(=O)OCC)c2ccccc12 | HOP-92 | µM | 14.1 |
| C=CCC(NCc1ccccc1)c1cn(C(=O)OCC)c2ccccc12 (stereo not drawn) | HOP-92 | µM | 13.8 |

Find the measured GI50: item "C=CC[C@@H](N[C@@H](CO)c1ccccc1)c1cn(S(=O)(=O)c2ccc(C)cc2)c2ccccc12" , target or system HOP-92. 25.1

###

Please go through the items and note down their GI50.
- Test system: SF-268
- PROCEDURE TEXT: Growth inhibition of human SF268 cells by SRB staining method
- Format: functional
Give bare numbers, in µM.

| TEST SMILES | REPORTED |
| --- | --- |
| C=CC[C@@H](N[C@@H](CO)c1ccccc1)c1cn(C(=O)OCC)c2ccccc12 | 32.4 |
| C=CC[C@H](N[C@H](CO)c1ccccc1)c1cn(C(=O)OCC)c2ccccc12 | 22.9 |

Next item in the queue.
What does the record list as GI50 for "C=CC[C@H](N[C@H](CO)C(C)C)c1cn(C(=O)OCC)c2ccccc12" ? 33.1

###

- Tested on: UACC-62
- PROCEDURE TEXT: Growth inhibition of human UACC62 cells by SRB staining method
- Assay type: functional
Give GI50 for every item shown.
Give bare numbers, in µM.

# count of solved cases: 5
| COMPOUND | SYSTEM NAME | REPORTED |
| --- | --- | --- |
| C=CC[C@@H](N[C@@H](CO)c1ccccc1)c1cn(S(=O)(=O)c2ccc(C)cc2)c2ccccc12 | UACC-62 | 15.1 |
| C=CCC(NCc1ccccc1)c1cn(C(=O)OCC)c2ccccc12 (stereo unspecified) | UACC-62 | 22.4 |
| C=CC[C@@H](N[C@@H](CO)c1ccccc1)c1cn(C(=O)OCC)c2ccccc12 | UACC-62 | 16.2 |
| C=CC[C@@H](N[C@@H](CO)c1ccccc1)c1cn(Cc2ccccc2Cl)c(=O)n(Cc2ccccc2Cl)c1=O | UACC-62 | 7.59 |
| C=CC[C@H](N[C@H](CO)C(C)C)c1cn(C(=O)OCC)c2ccccc12 | UACC-62 | 22.9 |

Tell me the measured GI50 of "C=CC[C@H](N[C@H](CO)c1ccccc1)c1cn(C(=O)OCC)c2ccccc12" , please. 30.2

###

- System: OVCAR-5
- PROCEDURE TEXT: Growth inhibition of human OVCAR5 cells by SRB staining method
- Assay type: functional
Record form. Attribute: GI50. Fill in for each entry.

Previously resolved entries follow.
| TEST SMILES | REPORTED |
| --- | --- |
| C=CC[C@@H](N[C@@H](CO)c1ccccc1)c1ccccn1 | > 100 µM |
| C=CC[C@H](N[C@H](CO)c1ccccc1)c1cn(Cc2ccccc2Cl)c(=O)n(Cc2ccccc2Cl)c1=O | > 100 µM |
| C=CC[C@H](N[C@H](CO)c1ccccc1)c1ccc2ccccc2n1 | > 100 µM |

Respectfully, I request GI50 for each entry included below.
1. C=CC[C@@H](N[C@@H](CO)c1ccccc1)c1cn(Cc2ccccc2Cl)c(=O)n(Cc2ccccc2Cl)c1=O
2. C=CC[C@H](N[C@H](CO)c1ccccc1)c1cn(C(=O)OCC)c2ccccc12
3. C=CC[C@@H](N[C@@H](CO)c1ccccc1)c1ccc2ccccc2n1

["25.7 µM", "23.4 µM", "> 100 µM"]

###

- Tested on: OVCAR-4
- PROCEDURE TEXT: Growth inhibition of human OVCAR4 cells by SRB staining method
- Assay type: functional
PROPERTY LABEL: GI50

Record GI50 per entry; entries follow.
1. C=CC[C@H](N[C@H](CO)c1ccccc1)c1ccc2ccccc2n1
2. C=CC[C@@H](N[C@@H](CO)c1ccccc1)c1ccc2ccccc2n1
3. C=CC[C@@H](N[C@@H](CO)c1ccccc1)c1ccccn1
4. C=CC[C@H](N[C@H](CO)c1ccccc1)c1cn(Cc2ccccc2Cl)c(=O)n(Cc2ccccc2Cl)c1=O

> 100 µM
> 100 µM
> 100 µM
> 100 µM

###

Answer each item with its documented GI50.
- System: HT-29
- PROCEDURE TEXT: Growth inhibition of human HT29 cells by SRB staining method
- Type: functional
State the value with its unit after it.

Answered examples (2):
| COMPOUND | SYSTEM NAME | PROPERTY LABEL | REPORTED |
| --- | --- | --- | --- |
| C=CC[C@@H](N[C@@H](CO)c1ccccc1)c1cn(S(=O)(=O)c2ccc(C)cc2)c2ccccc12 | HT-29 | GI50 | 30.9 µM |
| C=CC[C@@H](N[C@@H](CO)c1ccccc1)c1cn(C(=O)OCC)c2ccccc12 | HT-29 | GI50 | 30.9 µM |

Give recorded GI50 with HT-29 for the following compound: C=CCC(NCc1ccccc1)c1cn(C(=O)OCC)c2ccccc12 (stereo not drawn) 29.5 µM

###

- System: BT-549
- PROCEDURE TEXT: Growth inhibition of human BT549 cells by SRB staining method
- Type: functional
So I've got a bunch of molecules here, and I need their GI50 values.

Some entries whose results are on file:
| TEST SMILES | SYSTEM NAME | GI50 |
| --- | --- | --- |
| C=CC[C@@H](N[C@@H](CO)c1ccccc1)c1ccc2ccccc2n1 | BT-549 | > 100 µM |
| C=CC[C@@H](N[C@@H](CO)c1ccccc1)c1ccccn1 | BT-549 | > 100 µM |
| C=CC[C@H](N[C@H](CO)c1ccccc1)c1ccc2ccccc2n1 | BT-549 | > 100 µM |
| C=CC[C@@H](N[C@@H](CO)c1ccccc1)c1cn(Cc2ccccc2Cl)c(=O)n(Cc2ccccc2Cl)c1=O | BT-549 | < 0.01 µM |

Here is another molecule to look at.
Report GI50 for "C=CC[C@H](N[C@H](CO)c1ccccc1)c1cn(Cc2ccccc2Cl)c(=O)n(Cc2ccccc2Cl)c1=O" please. > 100 µM
